# target-entity: recombinant human DPP7 (Homo sapiens)
# Construct: purchased R&D Systems
# test-method-notes: DPP7 inhibition, fluorogenic substrate Lys-Pro-AMC
# Type: biochemical
# reported-conditions: recombinant human DPP7
pIC50: −log10 of the molar value.
Outcome label depends on pIC50 relative to 6: at/above gives class 1, below gives class 0.

Worked examples, 3 molecules total:
N#C[C@@H]1CCCN1C(=O)CN1CC[C@H](Nc2ccc(C(=O)Nc3ccncc3)c3ncccc23)C1
class 1
N#C[C@@H]1C[C@H](F)CN1C(=O)CN1CC[C@@H](Nc2ccc3ncccc3c2)C1
class 0
N#Cc1ccc(N[C@H]2CCN(CC(=O)N3CCC[C@H]3C#N)C2)c2cccnc12
class 0

Lookup: Determine whether this molecule has pIC50 no lower than 6: N#C[C@@H]1C[C@H](F)CN1C(=O)CN1CCC(Nc2ccc(C(=O)Nc3ccccc3)c3ncccc23)CC1
Found: class 1

Lookup: Determine whether this molecule has pIC50 no lower than 6: Cc1cnc2cccc(N[C@@H]3CCN(CC(=O)N4C[C@@H](F)C[C@H]4C#N)C3)c2c1
Found: class 1

* * *

# target-entity: recombinant human PREP (Homo sapiens, UniProt P48147)
# Construct: purchased R&D System
# Sequence (P48147 1-710): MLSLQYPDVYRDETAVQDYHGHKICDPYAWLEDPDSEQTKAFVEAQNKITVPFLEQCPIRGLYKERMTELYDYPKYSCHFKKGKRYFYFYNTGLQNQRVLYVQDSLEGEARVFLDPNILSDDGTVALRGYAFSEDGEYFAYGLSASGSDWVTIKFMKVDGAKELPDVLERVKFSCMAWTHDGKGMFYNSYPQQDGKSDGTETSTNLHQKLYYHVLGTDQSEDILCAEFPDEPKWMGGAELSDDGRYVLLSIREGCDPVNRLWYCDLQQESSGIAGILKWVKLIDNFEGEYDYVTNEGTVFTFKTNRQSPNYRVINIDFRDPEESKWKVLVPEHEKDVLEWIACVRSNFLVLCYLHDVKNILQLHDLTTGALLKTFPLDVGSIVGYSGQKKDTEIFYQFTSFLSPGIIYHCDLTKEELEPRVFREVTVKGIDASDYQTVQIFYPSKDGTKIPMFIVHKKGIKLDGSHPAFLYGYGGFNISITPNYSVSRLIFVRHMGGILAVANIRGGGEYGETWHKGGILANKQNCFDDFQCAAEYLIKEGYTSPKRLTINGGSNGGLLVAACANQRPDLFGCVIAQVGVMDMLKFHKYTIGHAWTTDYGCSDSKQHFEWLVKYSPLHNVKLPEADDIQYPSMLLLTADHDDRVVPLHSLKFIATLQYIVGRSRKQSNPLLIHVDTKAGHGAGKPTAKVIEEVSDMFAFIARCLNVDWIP
# test-method-notes: PREP inhibition, fluorogenic substrate Z-Gly-Pro-AMC
# Format: biochemical
# reported-conditions: Inhibitory Activity (IC50, nM) PREP, recombinant human PREP
# Procedure: The compounds according to the present technology were evaluated in terms of the inhibitory effect on the activity of dipeptidyl peptidases including FAP by using a substrate producing fluorescent substances upon enzymatic decomposition. […] Fluorescence intensity was measured using a microplate reader (Flexstation3, Molecular Devices) under the wavelength condition exciting at 380 nm and reading the emission at 460 nm. […]
The following molecules are shown together with reported IC50 values.
Unit nM implied. Number only.

Worked examples follow.
N#C[C@@H]1C[C@H](F)CN1C(=O)CN1CCC(Nc2cncc3ccccc23)CC1 [Example 339]
3590
CN(c1ccc2ncccc2c1)C1CCN(CC(=O)N2C[C@@H](F)C[C@H]2C#N)CC1 [Example 315]
134
CN(C)C(=O)c1ccc(N[C@H]2CCN(CC(=O)N3C[C@@H](F)C[C@H]3C#N)C2)c2cccnc12 [Example 282]
5060
COc1cnc2cccc(N[C@@H]3CCN(CC(=O)N4CCC[C@H]4C#N)C3)c2c1 [Example 204]
11500
Cc1ccc2nccc(OC3CCN(CC(=O)N4C[C@@H](F)C[C@H]4C#N)CC3)c2c1 [Example 410]
3170

Lookup: Param item = N#C[C@@H]1C[C@H](F)CN1C(=O)CN1CC[C@H](Nc2cccc3ncccc23)C1 [Example 228] ; retrieve measured IC50.
Found: 4290

Lookup: Param item = N#C[C@@H]1CCCN1C(=O)CN1CC[C@@H](Nc2cc(F)cc3ncccc23)C1 [Example 197] ; retrieve measured IC50.
Found: 14700

Lookup: Param item = Cc1cccc2c(OC3CCN(CC(=O)N4C[C@@H](F)C[C@H]4C#N)CC3)ccnc12 [Example 439] ; retrieve measured IC50.
Found: 75

* * *

# target-entity: Recombinant human FAP (Homo sapiens, UniProt Q12884)
# Construct: purchased R&D systems
# test-method-notes: FAP FRET assay, FGF21-sequence FRET peptide substrate
# Assay type: biochemical
# reported-conditions: FRET peptide with human FGF21 sequence, 6 μM, 37° C.
IC50 under 8 nM gets 1 (yes), anything at or over 8 nM gets 0 (no).

Worked examples, 3 compounds total:
N#C[C@@H]1C[C@H](F)CN1C(=O)CN1CC[C@@H](Nc2cccc3ncc(Cl)cc23)C1
1 (yes)
Cc1ccc(N[C@@H]2CCN(CC(=O)N3C[C@@H](F)C[C@H]3C#N)C2)c2cccnc12
1 (yes)
COc1ccc2ncc(NC3CCN(CC(=O)N4C[C@@H](F)C[C@H]4C#N)CC3)cc2c1
0 (no)

Lookup: I wonder whether N#C[C@@H]1C[C@H](F)CN1C(=O)CN1CC[C@H](Nc2ccc(F)c3ncccc23)C1 has IC50 below 8 nM. Can you tell?
Found: 1 (yes)

Lookup: I wonder whether N#C[C@@H]1C[C@H](F)CN1C(=O)CN1CC[C@@H](Nc2cnc3nc(Cl)ccc3c2)C1 has IC50 below 8 nM. Can you tell?
Found: 0 (no)

Lookup: I wonder whether CN(Cc1ccccc1)C(=O)c1ccc(N[C@H]2CCN(CC(=O)N3CCC[C@H]3C#N)C2)c2cccnc12 has IC50 below 8 nM. Can you tell?
Found: 0 (no)

Lookup: I wonder whether COc1cc(N[C@@H]2CCN(CC(=O)N3CCC[C@H]3C#N)C2)c2cccnc2c1 has IC50 below 8 nM. Can you tell?
Found: 0 (no)

* * *

# target-entity: Recombinant human FAP (Homo sapiens, UniProt Q12884)
# Construct: purchased R&D systems
# Sequence (Q12884 1-760): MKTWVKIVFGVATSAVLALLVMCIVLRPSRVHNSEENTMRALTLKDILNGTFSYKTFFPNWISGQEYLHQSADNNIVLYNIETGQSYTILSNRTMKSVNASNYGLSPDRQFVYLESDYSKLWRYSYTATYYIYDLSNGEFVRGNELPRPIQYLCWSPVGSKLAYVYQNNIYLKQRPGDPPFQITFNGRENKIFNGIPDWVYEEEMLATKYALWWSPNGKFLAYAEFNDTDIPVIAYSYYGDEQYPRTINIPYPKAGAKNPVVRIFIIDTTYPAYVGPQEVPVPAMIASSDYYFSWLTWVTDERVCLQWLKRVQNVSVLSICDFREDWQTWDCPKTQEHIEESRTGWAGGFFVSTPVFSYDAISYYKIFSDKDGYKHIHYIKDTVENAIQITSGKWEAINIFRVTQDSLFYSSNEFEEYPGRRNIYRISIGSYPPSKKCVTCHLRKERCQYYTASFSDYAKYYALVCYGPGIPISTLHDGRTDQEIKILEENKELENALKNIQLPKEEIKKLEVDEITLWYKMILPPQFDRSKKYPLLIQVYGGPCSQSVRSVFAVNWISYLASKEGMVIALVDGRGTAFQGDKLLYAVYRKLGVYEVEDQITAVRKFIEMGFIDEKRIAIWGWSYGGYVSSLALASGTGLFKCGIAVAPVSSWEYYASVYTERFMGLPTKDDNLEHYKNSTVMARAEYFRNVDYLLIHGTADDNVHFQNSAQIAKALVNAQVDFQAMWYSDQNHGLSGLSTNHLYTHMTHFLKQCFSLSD
# test-method-notes: FAP inhibition, fluorogenic substrate Z-Gly-Pro-AMC
# Type: biochemical
# reported-conditions: read-out: hFAP inhibition % at 1 μM
Outcome label depends on inhibition at 1 µM relative to 60%: at/above gives true, below gives false.

Worked examples, 5 compounds total:
N#C[C@@H]1CCCN1C(=O)CN1CC[C@H](Oc2ccc3ncnc(Cl)c3c2)C1
true
N#C[C@@H]1CCCN1C(=O)CN1CC[C@H](Oc2ccc(C(=O)c3ccccc3)cc2)C1
false
N#C[C@@H]1CCCN1C(=O)CN1CCC(Nc2cncc3ccoc23)CC1
true
N#C[C@@H]1CCCN1C(=O)CN1CC[C@H](Oc2ccc(Oc3ccccc3)cc2)C1
false
N#C[C@@H]1C[C@@H]2C[C@@H]2N1C(=O)CN1CC[C@H](Nc2cncc3ccoc23)C1
true

Lookup: Determine whether this compound has inhibition at 1 µM no lower than 60%: N#C[C@@H]1CCCN1C(=O)CN1CC[C@H](NC(=O)c2ccc3ccccc3n2)C1
Found: true

Lookup: Determine whether this compound has inhibition at 1 µM no lower than 60%: N#C[C@@H]1CCCN1C(=O)CN1CC[C@H](Oc2ccccc2-c2nc3ccccc3o2)C1
Found: false

Lookup: Determine whether this compound has inhibition at 1 µM no lower than 60%: N#C[C@@H]1CCCN1C(=O)CN1CC[C@H](NC(=O)c2ccccc2-c2ccccc2)C1
Found: true
